Attribute: Inh (% of Ctl) 0.5 μM
Molecular target: rat PGT (Rattus norvegicus (Rat), UniProt Q00910)
Test: [3H]PGE2 uptake inhibition in MDCK cells stably transfected with rat PGT (percent inhibition and IC50)
Type: cell-based
Details: 0.5 μM compound; inhibition of [3H]PGE2 uptake

Example entries and their recorded answers appear below.
{"columns": ["compound smiles", "Inh (% of Ctl) 0.5 μM"],
 "data": [
  ["O=C(NCCOCCOCCNc1nc(Nc2ccc(O)cc2)nc(Nc2ccc(C(=O)NCc3ccccc3-c3ccccc3)cc2)n1)c1ccccc1", "70.7 % of Ctl"],
  ["O=C(NCCOCCOCCNc1nc(Nc2ccc(O)cc2)nc(Nc2ccc(C(=O)NCc3cccc(C(F)(F)F)c3)cc2)n1)c1ccccc1", "54.0 % of Ctl"],
  ["O=C(NCc1ccccc1)c1ccc(Nc2nc(NCCOCCNC(=O)c3ccccc3C(F)(F)F)nc(Nc3ccc(O)cc3)n2)cc1", "27.7 % of Ctl"]
]}

Then this compound:
Task: Query: Inh (% of Ctl) 0.5 μM; subject: COc1cc(Nc2nc(NCCOCCOCCNC(=O)c3ccccc3)nc(Nc3ccc(O)cc3)n2)ccc1C(=O)NCc1ccccc1
Output: 0.4 % of Ctl
